target_of_assay: TBK1 (Homo sapiens (Human), UniProt Q9UHD2)
Sequence (Q9UHD2 whole entry): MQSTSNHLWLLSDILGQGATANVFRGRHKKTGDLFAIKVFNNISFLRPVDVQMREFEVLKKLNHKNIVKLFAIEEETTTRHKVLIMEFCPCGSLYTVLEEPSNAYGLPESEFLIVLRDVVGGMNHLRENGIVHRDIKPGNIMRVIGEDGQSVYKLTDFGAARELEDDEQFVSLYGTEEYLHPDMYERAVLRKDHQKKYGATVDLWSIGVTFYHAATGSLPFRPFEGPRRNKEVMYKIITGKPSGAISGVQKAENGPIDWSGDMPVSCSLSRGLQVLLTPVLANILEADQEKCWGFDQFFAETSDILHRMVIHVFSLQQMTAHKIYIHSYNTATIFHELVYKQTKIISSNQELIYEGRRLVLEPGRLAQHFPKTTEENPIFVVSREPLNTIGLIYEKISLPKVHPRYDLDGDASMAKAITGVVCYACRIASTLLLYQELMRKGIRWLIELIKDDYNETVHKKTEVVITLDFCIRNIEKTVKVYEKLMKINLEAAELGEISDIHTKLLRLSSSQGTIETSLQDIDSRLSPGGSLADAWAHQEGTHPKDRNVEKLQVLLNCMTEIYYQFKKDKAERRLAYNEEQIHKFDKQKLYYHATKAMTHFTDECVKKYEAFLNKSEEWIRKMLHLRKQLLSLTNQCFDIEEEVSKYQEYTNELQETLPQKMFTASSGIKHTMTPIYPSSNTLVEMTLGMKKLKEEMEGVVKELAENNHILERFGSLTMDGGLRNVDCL
assay_notes: TBK1 low ATP kinase assay (in vitro assay 1)
Assay type: biochemical
protocol_conditions: TBK1 low ATP kinase assay IC50, in vitro assay 1
measure_name: log10 IC50 (log10 of the value in nM)
Short version: log10 scale, IC50, nM.

Illustrative cases are given below, each with its answer.
>>> df
                                   compound  measure_name  result_number
0  CC(c1ccnc(Nc2nc3ccc(-c4cc(N(C)C)ncn4)cc3[nH]2)c1)N1CCN(C(=O)CC(F)(F)F)CC1 (single isomer, unassigned)    log10 IC50           0.18
1  Cc1noc(-c2ccc3nc(Nc4cc(C(C)N5CCN(C(=O)CC(F)(F)F)CC5)ccn4)[nH]c3c2)n1 (single isomer, unassigned) [Example 16.06.02.A]    log10 IC50           2.02
2  Cc1cc(-c2ccc3nc(Nc4cc(C(C)N5CCN(C(=O)CC(F)(F)F)CC5)ccn4)[nH]c3c2)ncn1 (single isomer, unassigned) [Example 30.03.01.A]    log10 IC50           1.26
3  CC(C)Oc1cncnc1-c1ccc2nc(Nc3cc(C(C)N4CCN(C(=O)CC(F)(F)F)CC4)ccn3)[nH]c2c1 (single isomer, unassigned)    log10 IC50           0.29

// query Please give the measured log10 IC50 for this compound: Cc1noc(-c2ccc3nc(Nc4cc(C(C)N5CCN(C(=O)CC(F)(F)F)CC5)ccn4)[nH]c3c2)n1 (single isomer, unassigned) [Example 16.06.02.B]
// result 1.24
